ASSAY PROCEDURE: Toxicity liver stage against HepG2, at 10uM
Type: cell-based
Parameters: test concentration 10 uM, cell line HepG2-A16-CD81EGFP
ASSAY SETUP: human, HepG2-A16-CD81EGFP cells; read-out: INHIBITION
Here, each record is paired with measured cytotoxicity at 10 µM data.
Give the value, in units of %, as a plain number.

// solved cases for cytotoxicity at 10 µM follow
>>> print(df.to_string())
                                   compound  unit_symbol  assay_value
0       Cn1ccnc1-c1ccc(NCc2cn3c(n2)SCC3)nn1            %       -0.641
1        CC(C)(C(=O)NCC(=O)NC1CC1)c1ccccc1F            %         -4.9
2  CN1CCC(N(CCc2ccccc2)C(=O)COCC2CCCO2)CC1 (stereo unspecified)            %         -148
3  O=C(N1CCOCC1)N1C2CCC(O)(CC2)C1CN1CCOCC1 (stereo unspecified)            %        -1.94
4  CCCC(C#N)NC(=O)CCCOc1cccc(F)c1 (stereo unspecified)            %        -44.1

# next compound below
// cytotoxicity at 10 µM lookup, key: COCCCS(=O)(=O)N1CCN(C(C)(C)CO)CC1
-6.46

---

ASSAY PROCEDURE: Toxicity liver stage against HepG2, at 10uM
Format: cell-based
Set-up: test concentration 10 uM, cell line HepG2-A16-CD81EGFP
ASSAY SETUP: human, HepG2-A16-CD81EGFP cells; read-out: INHIBITION
READOUT: cytotoxicity at 10 µM

In [3]: df
Out[3]:
                                   molecule                readout  assay_value
0  Cc1cccc(OCCNC(=O)CN2CCCC2Cn2cncn2)c1 (stereo not drawn)  cytotoxicity at 10 µM       -4.03%

cytotoxicity at 10 µM lookup needed for COc1cc(C)c(S(=O)(=O)NCc2cccnc2N(C)C)c(C)c1 , thanks.
12.2%

For CC(C)(C)OCC1CN(CC2CC2)S(=O)(=O)c2cnccc2O1 (stereo not drawn) , what is its reported cytotoxicity at 10 µM?
-1.16%

Reported cytotoxicity at 10 µM, molecule CCCC(=O)Nc1ccc(CC(=O)N(CC)CC2CCCCO2)cc1 (stereo not drawn) : ____
-9.24%

Reported cytotoxicity at 10 µM for CC(C)(C)n1cc(NC(=O)C2CN(Cc3ccccc3)CCO2)cn1 (stereo not drawn) : what is it?
0.935%

Any idea what cytotoxicity at 10 µM was measured for Cc1nc([C@@H]2C[C@H]3CN(Cc4ccc5c(c4)OCO5)C[C@H]3O2)no1 ?
-115%

Any idea what cytotoxicity at 10 µM was measured for CC1CCN(C(=O)CCN2Cc3ccccc3C[C@H]2C(N)=O)C1 (stereo partly drawn) ?
-3.11%

# lookup: cytotoxicity at 10 µM of CCCn1nnnc1COc1cc(OC)ccc1C(=O)OC
-2.04%

Consider the molecule shown here: Cc1cccnc1NC(=O)N(CCO)Cc1ccsc1 What is its recorded cytotoxicity at 10 µM?
-11.3%

Please report the recorded cytotoxicity at 10 µM for c1cc(CN2CCc3c(CN4CCCC4)n[nH]c3C2)ccn1 .
-10.5%

Dear colleague, I am looking for the recorded cytotoxicity at 10 µM of the following molecule: Cc1cc(C)n(CC(C)NC2CCN(Cc3cccnc3)CC2)n1 (stereo not drawn)
2.45%

Suppose we examine the molecule O=C1[C@@H]2CN(c3ncnc4sccc34)C[C@]2(C(=O)O)CN1CC1CC1 ; what cytotoxicity at 10 µM value has been reported?
0.977%

Consider the molecule CCc1ncc2c(n1)CN(Cc1nc(-c3ccco3)oc1C)CC2 and give its measured cytotoxicity at 10 µM.
6.15%

Entry under review: Cc1oc(C)c(C(=O)NCc2ccccc2S(=O)(=O)N(C)C)c1C . Reported cytotoxicity at 10 µM?
1.97%

Can you share its cytotoxicity at 10 µM? I mean this molecule: Cc1ccc(-c2nc(CNCCn3cccn3)cs2)o1
-5.9%

Sample COc1ncccc1NC(=O)N(Cc1ccccn1)C1CC1 — what was its cytotoxicity at 10 µM?
9.11%

Dear colleague, I am looking for the recorded cytotoxicity at 10 µM of the following molecule: CCCn1nc(C)c2c1NC(=O)CC2c1ccc(CN2CCCC2)s1 (stereo not drawn)
0.355%

---

ASSAY PROCEDURE: Toxicity liver stage against HepG2, at 10uM
Type: cell-based
Parameters: test concentration 10 uM, cell line HepG2-A16-CD81EGFP
ASSAY SETUP: human, HepG2-A16-CD81EGFP cells; read-out: INHIBITION
We begin with a simple list: items and their reported cytotoxicity at 10 µM.
// note: answer is a bare numeric in %

Some solved entries appear below for comparison.
>>> print(df.to_string())
                                   molecule                readout  assay_value
0  CCC(O)CN1CCN(C(=O)c2sccc2C2CC2)CC1 (stereo unspecified)  cytotoxicity at 10 µM        -14.6
1  O=C([C@H]1COC[C@H]2CN(C3CCCC3)C[C@H]21)N1CCOCC1  cytotoxicity at 10 µM         -105
2  CN(CCc1ccccn1)C1CCCN(Cc2noc(C3CC3)n2)C1 (stereo unspecified)  cytotoxicity at 10 µM         11.6
3  O=C(N1CCOCC1)N1CCc2[nH]nc(COc3cccc(Cl)c3)c2C1  cytotoxicity at 10 µM        -42.2
4  CCC(C)[C@H](NC(=O)c1ccc(F)cc1-n1cnnn1)C(=O)OC (stereo partly specified)  cytotoxicity at 10 µM         5.55
5  CC(=O)c1ccc(NC(=O)C(C)Cn2cc(Br)cn2)cc1 (stereo unspecified)  cytotoxicity at 10 µM         0.88
6              CSCc1cc(F)ccc1CNCc1cccc(O)c1  cytotoxicity at 10 µM        -3.58
7  COCCN1CCC(NC(=O)Nc2cccc(F)c2)C1 (stereo unspecified)  cytotoxicity at 10 µM       -0.898

Can you share its cytotoxicity at 10 µM? I mean this molecule: Cn1cccc(NC(=O)N2CCC(COCc3ccccc3)C2)c1=O (stereo unspecified)
3.67

Record request: cytotoxicity at 10 µM value, item CS(=O)(=O)N[C@@H]1CN(Cc2ccoc2)C[C@@H]2CCCO[C@@H]21
13.2

Value lookup for cytotoxicity at 10 µM; key = COCC1CC2(CCN(c3cccc(C)n3)CC2)CN1C(C)C (stereo unspecified)
-109

---

ASSAY PROCEDURE: Toxicity liver stage against HepG2, at 10uM
Assay type: cell-based
Design: test concentration 10 uM, cell line HepG2-A16-CD81EGFP
ASSAY SETUP: human, HepG2-A16-CD81EGFP cells; read-out: INHIBITION
READOUT: cytotoxicity at 10 µM (%)
Give the value in % but do not write % after it.

Completed entries (count: 10):
In [3]: df
Out[3]:
                                   molecule                readout  unit_symbol  assay_value
0  CC(CNC(=O)CCn1cncn1)N1CCc2ccccc21 (stereo not given)  cytotoxicity at 10 µM            %         -157
1   Cc1ncsc1CNC(=O)NCC1(c2ccc3c(c2)OCO3)CC1  cytotoxicity at 10 µM            %         14.3
2  CNc1nccnc1C1CN(Cc2ccc3[nH]ccc3c2)CCO1 (stereo not given)  cytotoxicity at 10 µM            %        -2.52
3  CN(C)C(=O)COCc1ncn2c1CN(c1ncc(F)cn1)CCC2  cytotoxicity at 10 µM            %         6.01
4  CN(C)C(=O)[C@H]1C[C@H]2OCC[C@H]2N(Cc2ccc3c(c2)OCO3)C1  cytotoxicity at 10 µM            %        -71.3
5  COc1ccc([C@@H]2CN(C(=O)CCc3cc(Cl)no3)C[C@H]2N(C)C)cc1  cytotoxicity at 10 µM            %          6.1
6  CC(=O)N1CCN(c2cc(C3CN(C(C)=O)CCO3)nc(C)n2)CC1 (stereo not given)  cytotoxicity at 10 µM            %        -22.8
7   CC(C)OC(=O)N1CCC(c2nnc(Cn3ccnc3)n2C)CC1  cytotoxicity at 10 µM            %         -120
8       O=C(CN1CCOC1=O)N(Cc1ccccc1)Cc1nccs1  cytotoxicity at 10 µM            %         0.84
9  COc1ccccc1CC1CCCN(CC(N)=O)C1 (stereo not given)  cytotoxicity at 10 µM            %         5.68

Looking for the measured cytotoxicity at 10 µM of O=C(C1CNCCN1C(=O)CCc1cccnc1)N1CCOCC1 (stereo not given) , can you help?
4.82

Can you share its cytotoxicity at 10 µM? I mean this molecule: O=C(C1CCC1)N1C[C@@H]2CN(c3ccccc3)C(=O)[C@@H]2C1
1.05

Query (molecule): O=C(c1ccncn1)N1CCO[C@H]2[C@@H](OCc3cccnc3)CC[C@@H]21 ; field requested: cytotoxicity at 10 µM
-7.69

Item CC(C)(C)c1ncc(C(=O)NCCNC(=O)c2ccc(O)cc2)s1 has what recorded cytotoxicity at 10 µM?
45.3

May I ask what cytotoxicity at 10 µM has been recorded for CC(C)CC(NC(=O)c1cc(-c2cccn2C)n[nH]1)c1ncnn1C (stereo not given) ?
-3.08

Item under review: CCN(CC)C(=O)CSc1sc2c(O)cc(=O)[nH]c2c1C(N)=O . Reported cytotoxicity at 10 µM?
0.488

Which cytotoxicity at 10 µM value belongs to CC(C)[C@H](NS(C)(=O)=O)C(=O)NCc1cc(-c2cccc(Cl)c2)nn1C ?
-5.47

Please give the measured cytotoxicity at 10 µM for this molecule: CCN(CC)c1ccc(-c2ccc(C)c(S(N)(=O)=O)c2)nn1
-7.99

Consider the molecule Cc1nc(N2CCCC2)nc2c1CCN(C(=O)c1ccoc1C)CC2 and give its measured cytotoxicity at 10 µM.
-111

For Cc1cc(NC(=O)N2CCOC(C(N)=O)C2)ccc1Br (stereo not given) , what is its reported cytotoxicity at 10 µM?
-154

Quick check: cytotoxicity at 10 µM of CC(C)CN1C[C@H]2CCN(C(=O)C3CCCO3)CC[C@H]2S1(=O)=O (stereo not given in full) ?
19.3

Using the record for CC(=O)N1N=C(c2ccco2)OC1C(=O)N(CC(C)C)CC(C)C (stereo not given) , report its cytotoxicity at 10 µM.
-1.31

Any idea what cytotoxicity at 10 µM was measured for CNS(=O)(=O)c1cccc(C(C)NCc2ccccc2OC)c1 (stereo not given) ?
-2.59

Value lookup for cytotoxicity at 10 µM; key = C=Cn1ncc(CN2C[C@@H]3CCCN3C[C@H]2Cc2ccccc2)c1C
-18.5

Give the measured cytotoxicity at 10 µM of CC(=O)N1CCCC(c2ccnc(Nc3cnccn3)n2)C1 (stereo not given) .
-12.5
